Overview of recorded inhibition in vivo at 10 mg/kg for various compounds
test system: left hind paw edema (carrageenin); assay: Anti-inflammatory activity: carrageenin-induced left hind paw edema; format: in vivo, male Wistar rats; settings: Rattus norvegicus, po; 10 mg/kg, p.o.; 1 h before carrageenin, measured 3 h later; read-out: Percent inhibition (edema)

>  <compound>
O=C(O)Cc1cccc2c(C3CCCCC3)nccc12 [Compound L, 1-cyclohexylisoquinoline-5-acetic acid]

>  <study-system>
left hind paw edema (carrageenin)

>  <units-symbol>
%

>  <inhibition in vivo at 10 mg/kg>
43.1

$$$$
>  <compound>
CCC(C)c1nccc2c(CC(=O)O)cccc12 (stereo not shown) [P, 1-sec-butylisoquinoline-5-acetic acid]

>  <study-system>
left hind paw edema (carrageenin)

>  <units-symbol>
%

>  <inhibition in vivo at 10 mg/kg>
39.6

$$$$
>  <compound>
O=C(O)Cc1cccc2c(-c3ccc(C(F)(F)F)cc3)nccc12 [I]

>  <study-system>
left hind paw edema (carrageenin)

>  <units-symbol>
%

>  <inhibition in vivo at 10 mg/kg>
24.5

$$$$
>  <compound>
NC(=O)Cc1cccc2c(-c3ccccc3)nccc12 [K, 1-phenylisoquinoline-5-acetamide]

>  <study-system>
left hind paw edema (carrageenin)

>  <units-symbol>
%

>  <inhibition in vivo at 10 mg/kg>
9

$$$$

====

System: left hind paw edema (carrageenin)
Assay: Anti-inflammatory activity: carrageenin-induced left hind paw edema
Assay type: in vivo, male Wistar rats
Details: Rattus norvegicus, po; 10 mg/kg, p.o.; 1 h before carrageenin, measured 3 h later; read-out: Percent inhibition (edema)
Method: Male Wistar rats weighing 120 to 150 g which had been fasted for 24 hours were used in groups each consisting of 5 rats. In each group, the volumes of the left hind paw were measured by a volume differential meter (made by Ugo Basile Company), and each of the test compounds was suspended in an aqueous solution of 0.5% of carboxymethyl cellulose and 2.0% of Tween 80, and administered orally through a tube. […] Three hours later, the volumes of the left hind paw were again measured. […]
Quick rule: inhibition in vivo at 10 mg/kg of at least 30% means class 1, below that means class 0.

>  <compound>
O=C(O)Cc1cccc2c(C3CCCC3)nccc12 [N, 1-cyclopentylisoquinoline-5-acetic acid]

>  <assigned-category>
class 0

$$$$
>  <compound>
CN(C)c1ccc(-c2nccc3c(CC(=O)O)cccc23)cc1 [D]

>  <assigned-category>
class 1

$$$$
>  <compound>
COc1ccc(-c2nccc3c(CC(=O)O)cccc23)cc1 [G]

>  <assigned-category>
class 1

$$$$
>  <compound>
O=C(O)Cc1cccc2c(-c3ccccc3)nccc12 [H, 1-phenylisoquinoline-5-acetic acid]

>  <assigned-category>
class 1

$$$$
>  <compound>
CC(C(=O)O)c1cccc2c(-c3ccc(Cl)cc3)nccc12 (stereo not shown) [F]

>  <assigned-category>
class 1

$$$$
>  <compound>
CC(C)c1nccc2c(CC(=O)O)cccc12 [M, 1-isopropylisoquinoline-5-acetic acid]

>  <assigned-category>
class 1

$$$$
>  <compound>
Cc1ccc(-c2nccc3c(CC(=O)O)cccc23)cc1 [Compound E]

>  <assigned-category>
class 1

$$$$
>  <compound>
CCOC(=O)Cc1cccc2c(-c3ccccc3)nccc12 [J, ethyl-1-phenylisoquinoline-5-acetate]

>  <assigned-category>
class 0

$$$$
>  <compound>
O=C(O)Cc1cccc2c(-c3ccc(F)cc3)nccc12 [C]

>  <assigned-category>
class 1

$$$$

====

test: Toxicity test (LD50); conditions: mouse, in vivo; oral, observed for 1 week; parentheses show 95% confidence limits
measurement-type: LD50 at 168 h (mg/kg)

>  <molecule>
CN(C)c1ccc(-c2nccc3c(CC(=O)O)cccc23)cc1

>  <measurement-type>
LD50 at 168 h

>  <inequality-operator>
>

>  <val>
300

$$$$
>  <molecule>
COc1ccc2c(c1)c(CC(=O)O)c(C)n2C(=O)c1ccc(Cl)cc1 [Indomethacin, reference compound]

>  <measurement-type>
LD50 at 168 h

>  <inequality-operator>
=

>  <val>
17.3

$$$$
>  <molecule>
O=C(O)Cc1cccc2c(-c3ccc(Cl)cc3)nccc12

>  <measurement-type>
LD50 at 168 h

>  <inequality-operator>
=

>  <val>
182

$$$$
>  <molecule>
O=C(O)Cc1cccc2c(C3CCCCC3)nccc12

>  <measurement-type>
LD50 at 168 h

>  <inequality-operator>
>

>  <val>
300

$$$$
>  <molecule>
Cc1ccc(-c2nccc3c(CC(=O)O)cccc23)cc1

>  <measurement-type>
LD50 at 168 h

>  <inequality-operator>
>

>  <val>
300

$$$$
>  <molecule>
O=C(O)Cc1cccc2c(-c3ccc(F)cc3)nccc12

>  <measurement-type>
LD50 at 168 h

>  <inequality-operator>
>

>  <val>
300

$$$$
>  <molecule>
COc1ccc(-c2nccc3c(CC(=O)O)cccc23)cc1

>  <measurement-type>
LD50 at 168 h

>  <inequality-operator>
>

>  <val>
300

$$$$
>  <molecule>
CC(C)c1nccc2c(CC(=O)O)cccc12

>  <measurement-type>
LD50 at 168 h

>  <inequality-operator>
=

>  <val>
250

$$$$
>  <molecule>
O=C(O)Cc1cccc2c(-c3ccccc3)nccc12

>  <measurement-type>
LD50 at 168 h

>  <inequality-operator>
>

>  <val>
300

$$$$
>  <molecule>
O=C(O)Cc1cccc2c(-c3ccc(Br)cc3)nccc12

>  <measurement-type>
LD50 at 168 h

>  <inequality-operator>
=

>  <val>
182

$$$$

====

Overview of recorded Gastric ulceration: damage beneath the mucosal membrane for various compounds
tested on: stomach mucosal membrane; assay: Ulcerogenic activity: gastric ulceration; format: in vivo, male Wistar rats; conditions: 30 mg/kg, p.o.; 4 h
measurement-type: Gastric ulceration: damage beneath the mucosal membrane

>  <compound>
O=C(O)Cc1cccc2c(C3CCCCC3)nccc12 [Compound L, 1-cyclohexylisoquinoline-5-acetic acid]

>  <val>
3/5

$$$$
>  <compound>
COc1ccc(-c2nccc3c(CC(=O)O)cccc23)cc1 [G]

>  <val>
0/5

$$$$
>  <compound>
Cc1ccc(-c2nccc3c(CC(=O)O)cccc23)cc1 [Compound E]

>  <val>
4/5

$$$$
>  <compound>
O=C(O)Cc1cccc2c(-c3ccc(Br)cc3)nccc12 [B]

>  <val>
4/5

$$$$
>  <compound>
CC(C(=O)O)c1cccc2c(-c3ccc(Cl)cc3)nccc12 (centres unmarked) [F]

>  <val>
2/5

$$$$
>  <compound>
O=C(O)Cc1cccc2c(-c3ccccc3)nccc12 [H, 1-phenylisoquinoline-5-acetic acid]

>  <val>
2/20

$$$$
>  <compound>
CN(C)c1ccc(-c2nccc3c(CC(=O)O)cccc23)cc1 [D]

>  <val>
3/6

$$$$
>  <compound>
O=C(O)Cc1cccc2c(-c3ccc(Cl)cc3)nccc12 [A]

>  <val>
0/5

$$$$

====

test system: stomach mucosal membrane; experiment: Ulcerogenic activity: gastric ulceration; type: in vivo, male Wistar rats; details: 10 mg/kg, p.o.; 4 h
Overview of recorded Gastric ulceration: damage beneath the mucosal membrane for various molecules
measurement-type: Gastric ulceration: damage beneath the mucosal membrane

>  <molecule>
CC(C(=O)O)c1cccc2c(-c3ccc(Cl)cc3)nccc12 (stereo not shown)

>  <val>
0/5

$$$$
>  <molecule>
Cc1ccc(-c2nccc3c(CC(=O)O)cccc23)cc1

>  <val>
0/5

$$$$
>  <molecule>
CN(C)c1ccc(-c2nccc3c(CC(=O)O)cccc23)cc1

>  <val>
0/6

$$$$
>  <molecule>
O=C(O)Cc1cccc2c(-c3ccc(Cl)cc3)nccc12

>  <val>
0/10

$$$$
>  <molecule>
O=C(O)Cc1cccc2c(-c3ccccc3)nccc12

>  <val>
1/15

$$$$
>  <molecule>
O=C(O)Cc1cccc2c(-c3ccc(Br)cc3)nccc12

>  <val>
0/5

$$$$
>  <molecule>
O=C(O)Cc1cccc2c(C3CCCCC3)nccc12

>  <val>
0/5

$$$$

====

System: left hind paw edema (carrageenin)
Experiment: Anti-inflammatory activity: carrageenin-induced left hind paw edema
Format: in vivo, male Wistar rats
Conditions: Rattus norvegicus, po; 30 mg/kg, p.o.; 1 h before carrageenin, measured 3 h later; read-out: Percent inhibition (edema)
Procedure: Male Wistar rats weighing 120 to 150 g which had been fasted for 24 hours were used in groups each consisting of 5 rats. In each group, the volumes of the left hind paw were measured by a volume differential meter (made by Ugo Basile Company), and each of the test compounds was suspended in an aqueous solution of 0.5% of carboxymethyl cellulose and 2.0% of Tween 80, and administered orally through a tube. […] Three hours later, the volumes of the left hind paw were again measured. […]
measurement-type: inhibition in vivo at 30 mg/kg

>  <compound>
NC(=O)Cc1cccc2c(-c3ccccc3)nccc12 [K, 1-phenylisoquinoline-5-acetamide]

>  <measurement-type>
inhibition in vivo at 30 mg/kg

>  <val>
39.7%

$$$$
>  <compound>
O=C(O)Cc1cccc2c(-c3ccc(C(F)(F)F)cc3)nccc12

>  <measurement-type>
inhibition in vivo at 30 mg/kg

>  <val>
30.2%

$$$$
>  <compound>
O=C(O)Cc1cccc2c(-c3ccccc3)nccc12

>  <measurement-type>
inhibition in vivo at 30 mg/kg

>  <val>
46.4%

$$$$
>  <compound>
CC(C)Cc1nccc2c(CC(=O)O)cccc12

>  <measurement-type>
inhibition in vivo at 30 mg/kg

>  <val>
42.8%

$$$$
>  <compound>
CCOC(=O)Cc1cccc2c(-c3ccccc3)nccc12 [J, ethyl-1-phenylisoquinoline-5-acetate]

>  <measurement-type>
inhibition in vivo at 30 mg/kg

>  <val>
41.1%

$$$$

Sourced from patent US4337256A
